# Measured Target: T1, CD27 expressed on the cell surface (HT1080_CD27 cells) (human, UniProt P26842 20-260); also: test concentration or dose not given here
# T1 sequence (looked up): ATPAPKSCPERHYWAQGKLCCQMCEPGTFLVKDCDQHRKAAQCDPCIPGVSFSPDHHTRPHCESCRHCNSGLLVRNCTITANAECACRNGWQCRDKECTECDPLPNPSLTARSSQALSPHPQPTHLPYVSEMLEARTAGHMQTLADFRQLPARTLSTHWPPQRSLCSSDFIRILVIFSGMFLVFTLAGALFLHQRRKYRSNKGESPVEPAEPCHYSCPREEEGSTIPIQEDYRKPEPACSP
# Test Summary: cell-based or functional assay
IL-8 [abs. corr.] reference

Binder	IL-8 [abs. corr.] [abs. corr.]
P018.S.03.A.H02 (antibody, V domains shown, V regions on human Ig constant parts; also called AB27_60) VH: QSLEESGGRLMTPGGSLTLTCTVSGFSLSDYNMQWVRQAPGEGLEWIGIISLGGTTDYANWVKGRFTISKTSTTVDLKMTSLTASDTATYFCARDPAGGNWAELDLWGQGTLVTVSS VL: DIVMTQTPASVSEPVGGTVTIKCQASQSISSWLSWFQQKPGQPPKLLIYDASTLASGVPSRFKGSGSGTEFTLTISDLESADAATYYCQQGSTISNVDNAFGGGTEVVVK	0.13
P018.S.01.A.G04 (antibody, V domains shown, V regions on human Ig constant parts; also called AB27_23) VH: QEQLVESGGGLVQPEGSLTLTCTASGVSFSNNYYISWVRQAPGKGLEWIACVYTGDDDYTYYPSWAKGRFTISKTSSTTVTLQMTSLTAADTATYFCAREILYPADTDSFDLWGPGTLVTVSS VL: AFELTQTPSSVEAAVGGTVTIKCQASESISSRLAWYQQKPGQPPKLLIYRASTLASGVPSRFKGSGSGTDFTLTISDLESADAATYYCQAYVGISSGGYIFGGGTEVVVK	0.273
